B1: glmS ribozyme (parent)
chain: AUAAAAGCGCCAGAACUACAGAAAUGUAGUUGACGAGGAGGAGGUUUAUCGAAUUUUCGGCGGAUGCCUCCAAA

- Variants of: B1
- Method Description: self-cleavage kobs at 10000 uM GlcN6P; higher = faster cleavage; RNA array
- Study Conditions: with glucosamine-6-phosphate
This sample holds only a part of the variants without activity.
Definition: the class of an entry is the range in low class = under 0.0001 s⁻¹, middle class = from 0.0001 s⁻¹ up to 0.0007 s⁻¹, high class = 0.0007 s⁻¹ and over that contains its self-cleavage kobs at 10000 uM GlcN6P.

Task: Using the reported self-cleavage kobs at 10000 uM GlcN6P, which band applies to C8U A15G G38U C61G C68G ?
Output: middle class

Task: Using the reported self-cleavage kobs at 10000 uM GlcN6P, which band applies to C11G G43A ?
Output: low class

Task: Using the reported self-cleavage kobs at 10000 uM GlcN6P, which band applies to C10U A33G G35C U45G C68U ?
Output: low class

Task: Using the reported self-cleavage kobs at 10000 uM GlcN6P, which band applies to G60C A64G ?
Output: low class

Task: Using the reported self-cleavage kobs at 10000 uM GlcN6P, which band applies to C11G G35C U49G ?
Output: low class

Task: Using the reported self-cleavage kobs at 10000 uM GlcN6P, which band applies to A6U G7U C16G C34A ?
Output: low class

Task: Using the reported self-cleavage kobs at 10000 uM GlcN6P, which band applies to C10A A14C U30G ?
Output: low class

Task: Using the reported self-cleavage kobs at 10000 uM GlcN6P, which band applies to G9A C70A ?
Output: low class

Task: Using the reported self-cleavage kobs at 10000 uM GlcN6P, which band applies to A12U U55G ?
Output: high class

Task: Using the reported self-cleavage kobs at 10000 uM GlcN6P, which band applies to C11G U46A ?
Output: low class

Task: Using the reported self-cleavage kobs at 10000 uM GlcN6P, which band applies to A12G C61G ?
Output: low class

Task: Using the reported self-cleavage kobs at 10000 uM GlcN6P, which band applies to A33C U54A ?
Output: high class

Task: Using the reported self-cleavage kobs at 10000 uM GlcN6P, which band applies to U54G U69G ?
Output: low class

Task: Using the reported self-cleavage kobs at 10000 uM GlcN6P, which band applies to G32U U55G U56A ?
Output: middle class

Task: Using the reported self-cleavage kobs at 10000 uM GlcN6P, which band applies to C8A A53C G59A C68A ?
Output: low class

Task: Using the reported self-cleavage kobs at 10000 uM GlcN6P, which band applies to G32A U55G U65G G66U C70G ?
Output: low class

Task: Using the reported self-cleavage kobs at 10000 uM GlcN6P, which band applies to G9C A36C ?
Output: low class

Task: Using the reported self-cleavage kobs at 10000 uM GlcN6P, which band applies to A39U A42G ?
Output: high class

Task: Using the reported self-cleavage kobs at 10000 uM GlcN6P, which band applies to G35C G40A ?
Output: low class

Task: Using the reported self-cleavage kobs at 10000 uM GlcN6P, which band applies to G13C A14G G41U ?
Output: low class

Task: Using the reported self-cleavage kobs at 10000 uM GlcN6P, which band applies to G29C U65G C67U ?
Output: middle class

Task: Using the reported self-cleavage kobs at 10000 uM GlcN6P, which band applies to A39U G43U ?
Output: middle class

Task: Using the reported self-cleavage kobs at 10000 uM GlcN6P, which band applies to A12C G66U ?
Output: high class

Task: Using the reported self-cleavage kobs at 10000 uM GlcN6P, which band applies to G41U G60C ?
Output: low class

Task: Using the reported self-cleavage kobs at 10000 uM GlcN6P, which band applies to A12U G41C ?
Output: middle class

Task: Using the reported self-cleavage kobs at 10000 uM GlcN6P, which band applies to U45C G60U ?
Output: low class

Task: Using the reported self-cleavage kobs at 10000 uM GlcN6P, which band applies to A14U C50G G62A A64G ?
Output: middle class

Task: Using the reported self-cleavage kobs at 10000 uM GlcN6P, which band applies to G37A C70U ?
Output: high class
